As a worked illustration, we turn to AC50 data collected for Glutamate receptor ionotropic, NMDA 1 (Rattus norvegicus).

Any idea what its AC50 is? The molecule is CC(C)(N)Cc1ccccc1
> 10 µM

// repeat for CS(=O)(=O)Nc1ccc([N+](=O)[O-])cc1Oc1ccccc1 [NIMESULIDE] and report
> 30 µM

// repeat for CC(=O)N1CCN(c2ccc(OCC3COC(Cn4ccnc4)(c4ccc(Cl)cc4Cl)O3)cc2)CC1 (centres undefined) and report
> 10 µM

// repeat for CC(=O)[C@@]1(O)CC[C@H]2[C@@H]3C[C@H](C)C4=CC(=O)C=C[C@]4(C)[C@@]3(F)[C@@H](O)C[C@@]21C and report
> 10 µM

// repeat for COc1ccc(C(Cl)=C(c2ccc(OC)cc2)c2ccc(OC)cc2)cc1 and report
> 30 µM

// repeat for COc1ccc(C(=O)c2ccccc2)c(O)c1 and report
> 30 µM

// repeat for Cc1cccc(Nc2ccncc2S(=O)(=O)NC(=O)NC(C)C)c1 [TORSEMIDE] and report
> 10 µM

// repeat for CN1CCC(=C2c3ccccc3CC(=O)c3sccc32)CC1 and report
> 10 µM

// repeat for CCN(CC)Cc1nccn1-c1ccc([N+](=O)[O-])cc1C(=O)c1ccccc1Cl and report
> 30 µM

---

As a worked illustration, we turn to AC50 data collected for D(3) dopamine receptor (Homo sapiens).

Any idea what its AC50 is? The compound is OCCOCCN1CCN(C(c2ccccc2)c2ccc(Cl)cc2)CC1 (stereo unspecified) [HYDROXYZINE]
0.29 µM

// repeat for CCN(CC)CCn1c(=O)c(Cc2ccc(OC)cc2)nc2ccccc21 and report
7.34 µM

// repeat for CC(=O)OCC1=C(C(=O)O)N2C(=O)[C@@H](NC(=O)CSc3ccncc3)[C@H]2SC1 and report
> 30 µM

// repeat for CN(C)CCOC(=O)C(c1ccccc1)C1(O)CCCC1 (stereo unspecified) [CYCLOPENTOLATE] and report
> 30 µM

// repeat for CO/N=C(\C(=O)N[C@@H]1C(=O)N2C(C(=O)O)=C(CSc3nc(C)c(CC(=O)O)s3)CS[C@H]12)c1csc(N)n1 and report
> 30 µM

// repeat for COc1cc(N)cn[n+]1-c1ccccc1 [AMEZINIUM METILSULFATE] and report
> 30 µM

---

Can you tell me AC50 for the items I'm about to list?
Measured Target: Sodium-dependent serotonin transporter (Homo sapiens, UniProt P31645)
Sequence (P31645 whole entry): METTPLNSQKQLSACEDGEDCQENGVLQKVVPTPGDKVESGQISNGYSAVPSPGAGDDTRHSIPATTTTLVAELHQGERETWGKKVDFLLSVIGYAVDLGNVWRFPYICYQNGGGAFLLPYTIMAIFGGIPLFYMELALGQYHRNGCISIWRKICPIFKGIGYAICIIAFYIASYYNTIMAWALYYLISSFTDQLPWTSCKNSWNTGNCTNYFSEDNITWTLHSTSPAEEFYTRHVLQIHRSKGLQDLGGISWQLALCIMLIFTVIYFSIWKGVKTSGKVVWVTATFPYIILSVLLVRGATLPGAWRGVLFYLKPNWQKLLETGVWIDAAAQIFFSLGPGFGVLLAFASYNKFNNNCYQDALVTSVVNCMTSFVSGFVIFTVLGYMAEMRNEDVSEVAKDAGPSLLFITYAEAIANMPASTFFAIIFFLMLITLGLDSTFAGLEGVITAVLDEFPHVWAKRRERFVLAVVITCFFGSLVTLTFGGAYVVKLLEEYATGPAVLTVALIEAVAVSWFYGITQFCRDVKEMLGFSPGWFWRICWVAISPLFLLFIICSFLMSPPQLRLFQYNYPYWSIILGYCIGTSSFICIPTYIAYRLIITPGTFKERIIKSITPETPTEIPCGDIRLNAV

Lab note: need AC50 for COc1cc(C[C@@H]2NCCc3cc(O)c(O)cc32)cc(OC)c1OC on Sodium-dependent serotonin transporter (Homo sapiens, UniProt P31645), anyone have it?
> 30 µM

// repeat for O=C1Nc2ccccc2C1(c1ccc(O)cc1)c1ccc(O)cc1 and report
> 30 µM

// repeat for [H]/N=C(/N)NS(=O)(=O)c1ccc(N)cc1 and report
> 30 µM

---

Measured Target: Estrogen receptor (Homo sapiens)
Sequence (P03372 whole entry): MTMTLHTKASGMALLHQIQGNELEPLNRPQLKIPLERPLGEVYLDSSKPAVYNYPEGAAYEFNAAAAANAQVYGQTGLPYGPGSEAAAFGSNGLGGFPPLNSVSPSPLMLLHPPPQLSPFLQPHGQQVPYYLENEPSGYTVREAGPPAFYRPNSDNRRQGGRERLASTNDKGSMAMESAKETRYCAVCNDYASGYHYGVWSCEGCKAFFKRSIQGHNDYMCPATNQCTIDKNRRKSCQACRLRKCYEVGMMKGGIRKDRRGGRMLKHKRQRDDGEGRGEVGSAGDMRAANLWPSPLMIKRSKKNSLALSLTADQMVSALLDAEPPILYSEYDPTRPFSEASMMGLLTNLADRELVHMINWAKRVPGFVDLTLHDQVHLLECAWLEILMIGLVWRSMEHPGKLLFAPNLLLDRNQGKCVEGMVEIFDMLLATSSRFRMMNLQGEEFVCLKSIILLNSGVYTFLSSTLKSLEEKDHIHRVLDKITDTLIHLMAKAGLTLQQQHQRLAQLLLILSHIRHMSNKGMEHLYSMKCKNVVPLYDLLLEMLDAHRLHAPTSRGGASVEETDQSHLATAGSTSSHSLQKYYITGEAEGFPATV
Property Label: AC50

Any idea what its AC50 is? The compound is CC(C)C[C@H](NC(=O)[C@H](Cc1ccccc1)NC(=O)c1cnccn1)B(O)O [BORTEZOMIB]
> 30 µM

// repeat for COc1cccc2c1C(=O)c1c(O)c3c(c(O)c1C2=O)C[C@@](O)(C(=O)CO)C[C@@H]3O[C@H]1C[C@H](N)[C@H](O)[C@H](C)O1 [DOXORUBICIN] and report
0.53 µM

// repeat for NCCCCCC(=O)O [AMINOCAPROIC ACID] and report
> 10 µM

// repeat for CCCCOC(=O)C(=O)Nc1cccc(-c2nnn[nH]2)c1 [TAZANOLAST] and report
> 30 µM

// repeat for C[C@]12CCC(=O)C=C1CC[C@H]1[C@@H]3CC[C@](O)(C(=O)CO)[C@@]3(C)C[C@H](O)[C@@]12F [FLUDROCORTISONE] and report
> 30 µM

---

Can you tell me AC50 for the items I'm about to list?
Measured Target: 5-hydroxytryptamine receptor 2A (Homo sapiens, UniProt P28223)
Sequence (P28223 whole entry): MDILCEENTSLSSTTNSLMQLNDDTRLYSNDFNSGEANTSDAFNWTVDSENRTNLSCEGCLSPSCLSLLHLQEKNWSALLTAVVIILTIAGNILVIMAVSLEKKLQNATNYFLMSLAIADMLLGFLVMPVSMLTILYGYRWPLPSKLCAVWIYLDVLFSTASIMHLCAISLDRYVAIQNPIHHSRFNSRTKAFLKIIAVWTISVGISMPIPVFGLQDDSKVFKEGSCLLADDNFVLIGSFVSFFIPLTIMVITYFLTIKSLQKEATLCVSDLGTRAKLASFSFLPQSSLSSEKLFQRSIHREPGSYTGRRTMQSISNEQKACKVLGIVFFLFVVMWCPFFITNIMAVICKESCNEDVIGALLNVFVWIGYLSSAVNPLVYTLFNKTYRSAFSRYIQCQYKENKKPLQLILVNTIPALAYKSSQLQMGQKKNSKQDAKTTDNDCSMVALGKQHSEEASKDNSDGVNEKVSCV
Format: functional, cell-based

Lab note: need AC50 for C[C@H](CCC(=O)O)[C@H]1CC[C@H]2[C@@H]3[C@H](O)C[C@@H]4C[C@H](O)CC[C@]4(C)[C@H]3CC[C@]12C [CHENODIOL] on 5-hydroxytryptamine receptor 2A (Homo sapiens, UniProt P28223), anyone have it?
> 30 µM

// repeat for C[C@]12C=CC(=O)C=C1C(Cl)=C[C@@H]1[C@@H]2[C@@H](O)C[C@@]2(C)[C@H]1CC[C@]2(O)C(=O)CO [CLOPREDNOL] and report
> 30 µM

// repeat for CC(C)/N=c1\cc2n(-c3ccc(Cl)cc3)c3ccccc3nc-2cc1Nc1ccc(Cl)cc1 [CLOFAZIMINE] and report
> 30 µM

---

Measured Target: Voltage-gated inwardly rectifying potassium channel KCNH2 (Homo sapiens, UniProt Q12809)
Sequence (Q12809 whole entry): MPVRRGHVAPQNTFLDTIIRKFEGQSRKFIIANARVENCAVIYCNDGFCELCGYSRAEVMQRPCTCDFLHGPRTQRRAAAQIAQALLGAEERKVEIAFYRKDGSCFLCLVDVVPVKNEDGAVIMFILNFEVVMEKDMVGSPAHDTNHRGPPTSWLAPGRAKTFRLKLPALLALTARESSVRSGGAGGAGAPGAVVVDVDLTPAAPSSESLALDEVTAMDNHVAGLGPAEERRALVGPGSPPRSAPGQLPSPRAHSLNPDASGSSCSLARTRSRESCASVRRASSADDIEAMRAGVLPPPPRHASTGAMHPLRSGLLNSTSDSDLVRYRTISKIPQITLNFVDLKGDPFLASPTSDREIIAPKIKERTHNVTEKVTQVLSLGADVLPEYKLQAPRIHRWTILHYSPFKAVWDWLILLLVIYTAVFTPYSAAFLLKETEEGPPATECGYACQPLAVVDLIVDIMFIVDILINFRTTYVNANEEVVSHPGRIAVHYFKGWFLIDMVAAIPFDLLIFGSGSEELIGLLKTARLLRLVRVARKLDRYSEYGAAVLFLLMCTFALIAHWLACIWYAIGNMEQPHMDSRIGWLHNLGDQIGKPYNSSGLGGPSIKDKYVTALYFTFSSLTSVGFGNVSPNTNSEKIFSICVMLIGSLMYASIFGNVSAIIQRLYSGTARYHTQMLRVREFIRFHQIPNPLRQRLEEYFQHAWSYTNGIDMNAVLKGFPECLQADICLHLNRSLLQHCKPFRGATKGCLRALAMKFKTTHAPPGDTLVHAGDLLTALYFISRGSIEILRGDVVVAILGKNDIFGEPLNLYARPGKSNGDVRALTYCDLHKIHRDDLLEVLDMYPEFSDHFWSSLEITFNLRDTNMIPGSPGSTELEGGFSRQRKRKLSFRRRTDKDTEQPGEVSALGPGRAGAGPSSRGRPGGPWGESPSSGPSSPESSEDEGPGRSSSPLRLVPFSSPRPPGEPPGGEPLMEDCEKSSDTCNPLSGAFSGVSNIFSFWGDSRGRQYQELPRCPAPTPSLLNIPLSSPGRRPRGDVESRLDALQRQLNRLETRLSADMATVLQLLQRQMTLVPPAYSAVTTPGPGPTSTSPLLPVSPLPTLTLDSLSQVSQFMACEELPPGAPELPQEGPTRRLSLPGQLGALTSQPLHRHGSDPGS
Format: functional
Condition Description: read-out: AC50
Property Label: AC50

Any idea what its AC50 is? The molecule is COc1nc(C)nc(Cl)c1N=C1NCCN1
> 30 µM

// repeat for CCC1(C)CC(=O)NC1=O (centres undefined) [ETHOSUXIMIDE] and report
> 30 µM

// repeat for Nc1ccc(C(=O)NCC(=O)O)cc1 and report
> 30 µM

// repeat for C[C@@H](CN1CC(=O)NC(=O)C1)N1CC(=O)NC(=O)C1 and report
> 30 µM

// repeat for CNC1(c2ccccc2Cl)CCCCC1=O (centres undefined) and report
> 30 µM

// repeat for O=C(O)c1ccc2nc(-c3cc(Cl)cc(Cl)c3)oc2c1 and report
> 30 µM

// repeat for COc1cc(C[C@@H]2NCCc3cc(O)c(O)cc32)cc(OC)c1OC and report
> 30 µM

// repeat for NC(=O)C1(N2CCCCC2)CCN(CCCC(=O)c2ccc(F)cc2)CC1 and report
1.9 µM

// repeat for CC(=O)Oc1cccc2c1C(=O)c1c(OC(C)=O)cc(C(=O)O)cc1C2=O and report
> 30 µM

// repeat for O=C(Cc1cccs1)N[C@@H]1C(=O)N2C(C(=O)[O-])=C(C[n+]3ccccc3)CS[C@H]12 and report
> 30 µM

// repeat for CO/N=C(\C(=O)N[C@@H]1C(=O)N2C(C(=O)O)=C(CSc3nc(C)c(CC(=O)O)s3)CS[C@H]12)c1csc(N)n1 and report
> 30 µM

// repeat for CNCCc1ccccn1 and report
> 30 µM

// repeat for OCCN(CCO)c1nc(N2CCCCC2)c2nc(N(CCO)CCO)nc(N3CCCCC3)c2n1 and report
> 30 µM

// repeat for Oc1cc(O)c2c(c1)O[C@H](c1ccc(O)c(O)c1)[C@@H](O)C2 and report
> 30 µM

// repeat for CC1(C)C[C@@H]1C(=O)N/C(=C\CCCCSC[C@H](N)C(=O)O)C(=O)O and report
> 30 µM

// repeat for Cc1c(C(C)C)c(=O)n(-c2ccccc2)n1C and report
> 30 µM

// repeat for COC(=O)CCc1ccc(OCC(O)CNC(C)C)cc1 (centres undefined) and report
> 30 µM

// repeat for COc1ccc(C(=O)c2ccccc2)c(O)c1 and report
> 30 µM

// repeat for C[C@H](Cn1cnc2c(N)ncnc21)OCP(=O)(O)O [TENOFOVIR ANHYDROUS] and report
> 30 µM

// repeat for CN(Cc1ccc(C(C)(C)C)cc1)Cc1cccc2ccccc12 and report
2.8 µM

// repeat for CC(C)CN(C[C@@H](O)[C@H](Cc1ccccc1)NC(=O)O[C@H]1CCOC1)S(=O)(=O)c1ccc(N)cc1 and report
> 30 µM

// repeat for CCN(CC)CCCN(c1ccccc1)C1Cc2ccccc2C1 and report
1 µM

// repeat for Cc1cnc(Nc2ccc(OCCN3CCCC3)cc2)nc1Nc1cccc(S(=O)(=O)NC(C)(C)C)c1 and report
0.82 µM

// repeat for CC(C)NC[C@H](O)COc1ccc(CCOCC2CC2)cc1 and report
> 30 µM

// repeat for CC(=O)SCC(Cc1ccccc1)C(=O)NCC(=O)OCc1ccccc1 (centres undefined) and report
> 30 µM

// repeat for C#C[C@]1(OC(C)=O)CC[C@H]2[C@@H]3CCC4=CC(=O)CC[C@@H]4[C@H]3CC[C@@]21C [NORETHINDRONE ACETATE] and report
> 30 µM

// repeat for CC(C)N1CCOC(c2cccc(C(F)(F)F)c2)C1 (centres undefined) and report
> 30 µM

// repeat for COC(=O)N(C)c1c(N)nc(-c2nn(Cc3ccccc3F)c3ncccc23)nc1N and report
5 µM

// repeat for CN(C)CCC(O)(c1ccccc1)c1ccccc1Cl (centres undefined) and report
3.4 µM

---

Can you tell me AC50 for the items I'm about to list?
Measured Target: Alpha-1A adrenergic receptor (Homo sapiens, UniProt P35348)
Sequence (P35348 whole entry): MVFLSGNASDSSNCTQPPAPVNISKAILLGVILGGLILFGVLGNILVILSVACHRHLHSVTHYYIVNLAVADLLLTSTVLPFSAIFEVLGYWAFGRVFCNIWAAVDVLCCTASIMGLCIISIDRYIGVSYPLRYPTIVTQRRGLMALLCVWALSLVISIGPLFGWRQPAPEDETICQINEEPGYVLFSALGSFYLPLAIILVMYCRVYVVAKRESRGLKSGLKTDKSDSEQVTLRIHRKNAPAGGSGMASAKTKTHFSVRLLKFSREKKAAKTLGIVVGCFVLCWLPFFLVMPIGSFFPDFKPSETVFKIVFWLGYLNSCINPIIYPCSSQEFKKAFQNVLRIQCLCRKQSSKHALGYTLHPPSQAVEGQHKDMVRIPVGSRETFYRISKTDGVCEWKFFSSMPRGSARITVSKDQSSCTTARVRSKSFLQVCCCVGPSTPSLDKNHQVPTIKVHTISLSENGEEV

Lab note: need AC50 for COc1ccc2c3c1O[C@H]1C(=O)CC[C@H]4[C@@H](C2)N(C)CC[C@]314 [HYDROCODONE] on Alpha-1A adrenergic receptor (Homo sapiens, UniProt P35348), anyone have it?
> 10 µM

// repeat for C[C@]12CCC(=O)C=C1CC[C@H]1[C@@H]3CC[C@](O)(C(=O)CO)[C@@]3(C)C[C@H](O)[C@@]12F [FLUDROCORTISONE] and report
> 10 µM

// repeat for CCC(NC(C)C)C(O)c1ccc(O)c(O)c1 (stereo not given) [ISOETHARINE] and report
> 30 µM

// repeat for CN1C2CCCC1CC(NC(=O)c1nn(C)c3ccccc13)C2 (stereo not given) [GRANISETRON] and report
> 10 µM

// repeat for Cc1cnc(Nc2ccc(OCCN3CCCC3)cc2)nc1Nc1cccc(S(=O)(=O)NC(C)(C)C)c1 [FEDRATINIB] and report
> 10 µM
